Molecular target: furin, P09958;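 note: purified furin at 1:10 enzyme:substrate in 50 mM HEPES pH 7.5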
Sequence (P09958 whole entry): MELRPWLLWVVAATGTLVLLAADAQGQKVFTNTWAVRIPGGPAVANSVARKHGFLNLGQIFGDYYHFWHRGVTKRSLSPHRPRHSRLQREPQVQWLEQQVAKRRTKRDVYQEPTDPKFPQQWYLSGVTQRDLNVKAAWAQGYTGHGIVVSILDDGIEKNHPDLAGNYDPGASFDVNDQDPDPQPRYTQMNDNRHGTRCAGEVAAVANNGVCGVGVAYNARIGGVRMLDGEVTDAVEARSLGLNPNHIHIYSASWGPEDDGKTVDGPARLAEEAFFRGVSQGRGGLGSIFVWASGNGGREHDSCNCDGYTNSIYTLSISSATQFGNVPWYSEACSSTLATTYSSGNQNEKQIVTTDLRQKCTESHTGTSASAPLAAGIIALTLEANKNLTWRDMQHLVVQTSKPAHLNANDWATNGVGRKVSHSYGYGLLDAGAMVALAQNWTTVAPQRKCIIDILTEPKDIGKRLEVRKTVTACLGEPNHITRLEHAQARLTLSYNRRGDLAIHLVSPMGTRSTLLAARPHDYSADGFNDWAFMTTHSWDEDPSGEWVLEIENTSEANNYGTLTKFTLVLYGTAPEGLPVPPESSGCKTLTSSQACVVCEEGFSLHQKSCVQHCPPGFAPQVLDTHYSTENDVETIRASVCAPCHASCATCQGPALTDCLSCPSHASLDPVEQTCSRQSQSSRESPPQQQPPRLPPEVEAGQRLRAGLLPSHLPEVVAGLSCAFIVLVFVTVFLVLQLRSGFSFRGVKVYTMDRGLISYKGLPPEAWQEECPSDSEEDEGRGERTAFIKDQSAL
Test: furin cleavage Z-score vs untreated control; higher = more cleavage, active = 3.5 or more, inactive = 1 or less, 8 variable residues between constant flanks
Conditions: 15 min
The list shows a part of the results. The true hit rate is not given.
Outcome measure: furin cleavage Z-score
Number only, please.

Worked set:
CAMEEVSQHLAGNASASA [HC3]    1.13
CARAGRSKGTAGNASASA [FU10]    1.52

Now look at this one.
Which furin cleavage Z-score value is on record for CATCRNMWSGAGNASASA [HC1186] ?
1.34
